meta.source: ChEMBL document CHEMBL1201862

Test system: UACC-257
Experiment: NCI tumour cell line growth inhibition, 48 h
The source made the active and inactive calls. No stated cut-off is given here; in the data, active = GI50 up to about 1.1 µM and inactive = higher. Non-standard residues stand in square brackets, D forms with d. Square brackets hold non-standard residues; d marks the D form. Residues, ends and D or L forms follow the SMILES beside them. Peptide text beside a SMILES is read from it. * marks the point of attachment. *: point of attachment. NMeV = CN[C@H](C(=O)O)C(C)C; X28 = COc1ccc(CN*)c(OC)c1; Octanoyl = CCCCCCCC(=O)*; dNMeA = CN[C@H](C)C(=O)O; Ac5c = NC1(C(=O)O)CCCC1; Boc = CC(C)(C)OC(=O)*; tBu = CC(C)(C)*
Provide the reported GI50 of each item.

Request: Any idea what GI50 was measured for "CCOc1ccc2nc(NC(NC(=O)c3cccnc3)(C(F)(F)F)C(F)(F)F)sc2c1" ?
Response: 25.5 µM (inactive)

Request: Any idea what GI50 was measured for CCCCCCCC(=O)N[C@H](C(=O)N[C@H](C(=O)N(C)[C@H](C(=O)N1CCC[C@H]1C(=O)N(C)[C@H](C)C(=O)NCc1ccc(OC)cc1OC)C(C)C)C(C)C)C(C)C (Octanoyl-VV[NMeV]P[dNMeA]-X28) ?
Response: 5.21 µM (inactive)

Request: Any idea what GI50 was measured for CC(C)C(C/C=C1\CC(CO)(COC(=O)C2CCCCC2)OC1=O)C(C)C (centres undefined) ?
Response: 32.2 µM (inactive)

Request: Any idea what GI50 was measured for "CCOP(=O)(OCC)/C(C#N)=C\c1ccc(OC(C)=O)cc1" ?
Response: > 100 µM (inactive)

Request: Any idea what GI50 was measured for COC(=O)C(NC(=O)c1ccccc1)C(c1ccc(Cl)cc1)P(=O)(OC)OC (centres undefined) ?
Response: > 100 µM (inactive)

Request: Any idea what GI50 was measured for "O=C(O)CNCc1c2ccccc2[n+]([O-])c2ccccc12" ?
Response: > 100 µM (inactive)

Request: Any idea what GI50 was measured for "CN1CN(c2ccccc2)C2(CCN(Cc3csc4ccccc34)CC2)C1=O" ?
Response: 13.2 µM (inactive)

Request: Any idea what GI50 was measured for "CN(C)CC/C(=N\Nc1c(F)c(F)c(F)c(F)c1F)c1ccccc1" ?
Response: 24.1 µM (inactive)

Request: Any idea what GI50 was measured for CC(OC(C)(C)C)C(NC(=O)C(CCCCNC(=O)OC(C)(C)C)NC(=O)C(Cc1c[nH]c2ccccc12)NC(=O)C(N)Cc1ccccc1)C(=O)NC(Cc1ccccc1)C(=O)NC1(C(=O)O)CCCC1 (centres undefined) (H-FWK(Boc)T(tBu)F[Ac5c]-OH; configuration not given here) ?
Response: > 100 µM (inactive)

====

System: CAKI-1
Assay: NCI tumour cell line growth inhibition, 48 h
Activity calls are given as the source filed them. No stated cut-off is given here; in the data, active = GI50 up to about 1.1 µM and inactive = higher.
Answer with one of the outcomes given here: active, inactive

Request: Lab log entry: O=C1OC2C(O)COC2(O)C1(O)C(C[N+](=O)[O-])c1ccc(Cl)cc1 (stereo unspecified) — outcome as called in the assay?
Response: inactive

Request: Lab log entry: CCOC(=O)c1c(-c2ccc(O)c(OC)c2)c(C#N)c(=S)n(C2OC(COC(C)=O)C(OC(C)=O)C(OC(C)=O)C2OC(C)=O)c1-c1ccccc1 (stereo unspecified) — outcome as called in the assay?
Response: inactive

Request: Lab log entry: COc1cc2c3c(c1OCc1ccccc1)NCCC3NCC2 (stereo unspecified) — outcome as called in the assay?
Response: inactive

Request: Lab log entry: "O=C(O)CNCc1c2ccccc2[n+]([O-])c2ccccc12" — outcome as called in the assay?
Response: inactive

Request: Lab log entry: CC(N)C(=O)c1ccc(O)cc1 (stereo unspecified) — outcome as called in the assay?
Response: inactive

Request: Lab log entry: "O=C1c2cccc3cc([N+](=O)[O-])cc(c23)C(=O)N1CCCN1CCN(CCCN2C(=O)c3cccc4cc([N+](=O)[O-])cc(c34)C2=O)CC1" — outcome as called in the assay?
Response: active

Request: Lab log entry: "CN(N=O)C(=N)NC(=O)c1ccccc1" — outcome as called in the assay?
Response: inactive

Request: Lab log entry: "O=C1/C(=C/c2ccccc2)CN(C(=O)/C=C/c2ccccc2)C/C1=C\c1ccccc1" — outcome as called in the assay?
Response: inactive

Request: Lab log entry: "Cc1nn(-c2ccccn2)c2c1C(SC#N)=C(C=O)CC2" — outcome as called in the assay?
Response: inactive

Request: Lab log entry: "Cc1c(O)c(=O)ccn1CCO" — outcome as called in the assay?
Response: inactive

Request: Lab log entry: CCSCCCCC(c1ccc(O)cc1)C(C)(CC)c1ccc(O)cc1 (stereo unspecified) — outcome as called in the assay?
Response: inactive

Request: Lab log entry: "Nc1nc(O)c2c(n1)NCN(CCCN1CCOCC1)C2" — outcome as called in the assay?
Response: inactive

Request: Lab log entry: "CC(=O)c1ccc2c(c1)N(CCCN1CCN(CCO)CC1)c1ccccc1C2" — outcome as called in the assay?
Response: inactive

Request: Lab log entry: c1ccc(CSSSCc2ccccc2)cc1 [DIBENZYL TRISULFIDE] — outcome as called in the assay?
Response: inactive

Request: Lab log entry: "COc1cc(NCC(C#N)C#N)ccc1/N=N/c1ccc([N+](=O)[O-])cc1" — outcome as called in the assay?
Response: inactive

Request: Lab log entry: O=C1CN(C(=O)C2CCCN2C(=O)C2CCCN2)C(=O)CN1 (stereo unspecified) — outcome as called in the assay?
Response: inactive

Request: Lab log entry: "C=CCN(c1cc(OC)c2[nH]c(C(=O)OCC)c(C)c2c1[N+](=O)[O-])S(C)(=O)=O" — outcome as called in the assay?
Response: inactive

Request: Lab log entry: "O=C(NNc1nc(-c2ccccc2)cs1)Nc1ccccc1" — outcome as called in the assay?
Response: inactive

Request: Lab log entry: CC(O)C1(CNc2cc(Cl)nc(N)n2)CCC1 (stereo unspecified) — outcome as called in the assay?
Response: inactive

Request: Lab log entry: "O=C1OC(c2ccccc2)=N/C1=C\c1ccc(Br)cc1" — outcome as called in the assay?
Response: inactive

Request: Lab log entry: "Cc1c(/C=N/NC(=O)c2cc(Br)cc(Br)c2O)c(=O)n(-c2ccccc2)n1C" — outcome as called in the assay?
Response: inactive

Request: Lab log entry: O=c1cnn(C2OC(C(O)CO)C(O)C2O)c(=O)[nH]1 (stereo unspecified) — outcome as called in the assay?
Response: inactive

Request: Lab log entry: O=C1C(CO)=C[C@@H](O)[C@H]2O[C@@H]12 [EPOXYDON] — outcome as called in the assay?
Response: inactive

Request: Lab log entry: Cc1cn(C2CC(O)C(CO[Si](C)(C)C(C)(C)C)OC2OC(C)C)c(=O)[nH]c1=O (stereo unspecified) — outcome as called in the assay?
Response: inactive

Request: Lab log entry: CC(=O)OC1CCN(C(=O)c2ccccc2)CC1CC1(c2cc3ccccc3[nH]2)OCCO1 (stereo unspecified) — outcome as called in the assay?
Response: inactive

Request: Lab log entry: "CCOP(=O)(OCC)/C(F)=C/c1ccccc1" — outcome as called in the assay?
Response: inactive

Request: Lab log entry: "COC(=O)c1ccc2n1C1CC3CC(CC2C3)C1" — outcome as called in the assay?
Response: inactive

Request: Lab log entry: "N#Cc1c(C#N)c(-c2cccc([N+](=O)[O-])c2)n(-c2ccccc2)c1N" — outcome as called in the assay?
Response: inactive

Request: Lab log entry: "CC(C)(C)/C(O)=C\c1nc2cc(F)c(F)cc2[nH]c1=O" — outcome as called in the assay?
Response: inactive

Request: Lab log entry: "O=C(CCc1ccc(O)c(O)c1)c1ccc(O)c(O)c1O" — outcome as called in the assay?
Response: inactive

Request: Lab log entry: "COc1ccc2ccc3oc(=O)c(C)cc3c2c1" — outcome as called in the assay?
Response: inactive

Request: Lab log entry: C[N+](C)(C)CC1CCCC1=O (stereo unspecified) — outcome as called in the assay?
Response: inactive

Request: Lab log entry: CC/C=C/C(CC)C/C(C)=C\[C@]1(CC)C[C@H](CC)[C@H](CC(=O)O)OO1 (stereo partly specified) — outcome as called in the assay?
Response: active

Request: Lab log entry: "O[C@]12CCCC[C@H]1CCC2" — outcome as called in the assay?
Response: inactive

Request: Lab log entry: "O=C1CCCNn2c(nc3ncccc3c2=O)N1" — outcome as called in the assay?
Response: inactive

Request: Lab log entry: "CSc1cc(Cl)c(C)cc1S(=O)(=O)NC(=O)NNc1ccc(C)cc1" — outcome as called in the assay?
Response: inactive

Request: Lab log entry: "Cc1c(N2CCOCC2)nc2ccc(Cl)cc2c1-c1ccccc1" — outcome as called in the assay?
Response: inactive

Request: Lab log entry: C=C1C(=O)O[C@H]2[C@H]1[C@H](OC(=O)/C(C)=C\C)C[C@]1(CO1)[C@@H]1[C@H](OC(C)=O)C=C(C)[C@]21O [EUPAROTIN ACETATE] — outcome as called in the assay?
Response: inactive

Request: Lab log entry: "COC(=O)Nc1nc2cc(C(=O)c3ccc[nH]3)ccc2[nH]1" — outcome as called in the assay?
Response: active

Request: Lab log entry: Cc1cn(CCCCOC(=O)NC(CCCNC(N)=O)C(=O)O)c(=O)[nH]c1=O (stereo unspecified) — outcome as called in the assay?
Response: inactive

Request: Lab log entry: "Cc1cc(S(=O)(=O)NC(=C(C#N)C#N)[n+]2ccc(N(C)C)cc2)c([S-])cc1Cl" — outcome as called in the assay?
Response: inactive

Request: Lab log entry: Nc1ncnc2c1ccn2C1OC2COP(=O)(O)OC2C1O (stereo unspecified) — outcome as called in the assay?
Response: active

Request: Lab log entry: "CCN(CC)/[N+]([O-])=N/OS(=O)(=O)N(C)C" — outcome as called in the assay?
Response: inactive

Request: Lab log entry: "Cc1ccc(NC(=O)CCc2nnc(N)o2)cc1" — outcome as called in the assay?
Response: inactive

Request: Lab log entry: CN1C2CCC1C(CO)C(=O)C2 (stereo unspecified) — outcome as called in the assay?
Response: inactive

Request: Lab log entry: "CCN(CC)CCn1c(=O)c2cccnc2n2c3c(=O)n(C)c(=O)n(C)c3nc12" — outcome as called in the assay?
Response: inactive
